# tgt: T1, biotinylated avi-tagged TβRII (UniProt P37173 23-166, a single biotin on the avi tag (BirA))
# T1 construct: also called TβRII (SPR surface)
# experiment-summary: SPR; biotinylated avi-tagged TβRII captured (50-150 RU) on a neutravidin-coated CM-5 chip, TGM-D3 and its variants injected; 25 mM Hepes, pH 7.4, 150 mM NaCl, 0.05% surfactant P20, 100 µl/min; 1:1 kinetic fit of duplicate or triplicate injection series
# assay-context: both partners purified
measured-metric: Kd (µM)
Just the number in µM, nothing appended.

Kd for TGM-D3 V236A (domain or fragment, also called Val236Ala; not shown: Thioredoxin, N-terminal, cleaved; His6, N-terminal, cleaved) GSGTGCPPLPDDGIVFYEYYGYAGDRHTVGPVVTKDSSGNYPSPTHARRRCRALSQEADPGEFAAICYKSGTTGESHWEYYKNIGKCPDP is 4.6

Kd for TGM-D3 N255A (domain or fragment, also called Asn255Ala; not shown: Thioredoxin, N-terminal, cleaved; His6, N-terminal, cleaved) GSGTGCPPLPDDGIVFYEYYGYAGDRHTVGPVVTKDSSGNYPSPTHARRRCRALSQEADPGEFVAICYKSGTTGESHWEYYKAIGKCPDP is 2.7

Kd for TGM-D3 I238A (domain or fragment, not shown: Thioredoxin, N-terminal, cleaved; His6, N-terminal, cleaved) GSGTGCPPLPDDGIVFYEYYGYAGDRHTVGPVVTKDSSGNYPSPTHARRRCRALSQEADPGEFVAACYKSGTTGESHWEYYKNIGKCPDP is 25

Kd for TGM-D3 K254A (domain or fragment, also called Lys254Ala; not shown: Thioredoxin, N-terminal, cleaved; His6, N-terminal, cleaved) GSGTGCPPLPDDGIVFYEYYGYAGDRHTVGPVVTKDSSGNYPSPTHARRRCRALSQEADPGEFVAICYKSGTTGESHWEYYANIGKCPDP is 35
